Value source: ChEMBL document CHEMBL5131387

biological target: P2Y purinoceptor 14 (Homo sapiens); assay: Antagonist activity at human P2Y14R expressed in human HEK293 cells assessed as inhibition of cAMP level at 100 nM incubated for 30 mins by cAMP-glo assay relative to control; type: functional, cell-based; conditions: filed as antagonist
Sequence (Q15391 whole entry): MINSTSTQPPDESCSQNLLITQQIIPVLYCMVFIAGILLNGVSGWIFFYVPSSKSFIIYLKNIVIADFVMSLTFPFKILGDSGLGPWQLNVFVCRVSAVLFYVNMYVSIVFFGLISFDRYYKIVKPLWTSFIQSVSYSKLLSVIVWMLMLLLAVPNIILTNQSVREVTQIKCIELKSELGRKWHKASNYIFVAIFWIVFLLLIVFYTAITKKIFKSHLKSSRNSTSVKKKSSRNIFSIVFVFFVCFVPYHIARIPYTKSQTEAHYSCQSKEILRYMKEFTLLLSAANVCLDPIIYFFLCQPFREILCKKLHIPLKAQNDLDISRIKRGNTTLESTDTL
Property Measured: inhibition (%)
Respond with the bare value in %.

Below, 4 compounds whose answers are already recorded.
Cc1ccccc1CC(=O)Nc1cccc(-c2nc3ccccc3o2)c1 : 73.3
Cc1cccc(CC(=O)Nc2cc(C)cc(-c3nc4cc(Cl)ccc4o3)c2)c1 : 86.9
Cc1ccc(CC(=O)Nc2ccc(-c3cc4ccccc4o3)cc2)cc1 : 72
O=C(Cc1cccc(C(F)(F)F)c1)Nc1cccc(-c2nc3cc(Cl)ccc3o2)c1 : 79.7

Consider the record given below.
Which value of inhibition has been reported for `COc1ccc(CC(=O)Nc2cccc(-c3nc4cc(Cl)ccc4o3)c2)cc1` in the records? 89

====

A collection of compounds and their measured pIC50
biological target: P2Y purinoceptor 14 (Homo sapiens); assay: Antagonist activity at human P2Y14R expressed in human HEK293 cells assessed as inhibition of cAMP level incubated for 30 mins by cAMP-glo assay
The quantity pIC50 is defined as the negative base-10 logarithm of the molar concentration.

Below, 2 compounds whose answers are already recorded.
O=C(Cc1cccc(Cl)c1)Nc1cccc(-c2nc3cc(Cl)ccc3o2)c1 : 7.87
COc1cccc(CC(=O)Nc2cccc(-c3nc4cc(Cl)ccc4o3)c2)c1 : 7.62

Which value of pIC50 has been reported for `O=C(Cc1cccc(OC(F)(F)F)c1)Nc1cccc(-c2nc3cc(Cl)ccc3o2)c1` in the records? 7.90

Which value of pIC50 has been reported for `O=C(Cc1cccc(Br)c1)Nc1cccc(-c2nc3ccccc3o2)c1` in the records? 7.60

Which value of pIC50 has been reported for `O=C(Cc1cccc(C(F)(F)F)c1)Nc1cccc(-c2nc3cc(Cl)ccc3o2)c1` in the records? 7.56

Which value of pIC50 has been reported for `O=C(Cc1ccccc1Br)Nc1cccc(-c2nc3cc(Cl)ccc3o2)c1` in the records? 7.48

Which value of pIC50 has been reported for `COc1ccc(CC(=O)Nc2cccc(-c3nc4cc(Cl)ccc4o3)c2)cc1` in the records? 8.04

Which value of pIC50 has been reported for `Cc1ccccc1CC(=O)Nc1cccc(-c2nc3ccccc3o2)c1` in the records? 8.03
